- Measured Target: EGFR (HCC827 cells) (Homo sapiens, UniProt P00533, DEL746-750)
- Construct: endogenous in cells; host or cells: HCC827
- Sequence (P00533 with tags, fused parts or gaps DEL746-750): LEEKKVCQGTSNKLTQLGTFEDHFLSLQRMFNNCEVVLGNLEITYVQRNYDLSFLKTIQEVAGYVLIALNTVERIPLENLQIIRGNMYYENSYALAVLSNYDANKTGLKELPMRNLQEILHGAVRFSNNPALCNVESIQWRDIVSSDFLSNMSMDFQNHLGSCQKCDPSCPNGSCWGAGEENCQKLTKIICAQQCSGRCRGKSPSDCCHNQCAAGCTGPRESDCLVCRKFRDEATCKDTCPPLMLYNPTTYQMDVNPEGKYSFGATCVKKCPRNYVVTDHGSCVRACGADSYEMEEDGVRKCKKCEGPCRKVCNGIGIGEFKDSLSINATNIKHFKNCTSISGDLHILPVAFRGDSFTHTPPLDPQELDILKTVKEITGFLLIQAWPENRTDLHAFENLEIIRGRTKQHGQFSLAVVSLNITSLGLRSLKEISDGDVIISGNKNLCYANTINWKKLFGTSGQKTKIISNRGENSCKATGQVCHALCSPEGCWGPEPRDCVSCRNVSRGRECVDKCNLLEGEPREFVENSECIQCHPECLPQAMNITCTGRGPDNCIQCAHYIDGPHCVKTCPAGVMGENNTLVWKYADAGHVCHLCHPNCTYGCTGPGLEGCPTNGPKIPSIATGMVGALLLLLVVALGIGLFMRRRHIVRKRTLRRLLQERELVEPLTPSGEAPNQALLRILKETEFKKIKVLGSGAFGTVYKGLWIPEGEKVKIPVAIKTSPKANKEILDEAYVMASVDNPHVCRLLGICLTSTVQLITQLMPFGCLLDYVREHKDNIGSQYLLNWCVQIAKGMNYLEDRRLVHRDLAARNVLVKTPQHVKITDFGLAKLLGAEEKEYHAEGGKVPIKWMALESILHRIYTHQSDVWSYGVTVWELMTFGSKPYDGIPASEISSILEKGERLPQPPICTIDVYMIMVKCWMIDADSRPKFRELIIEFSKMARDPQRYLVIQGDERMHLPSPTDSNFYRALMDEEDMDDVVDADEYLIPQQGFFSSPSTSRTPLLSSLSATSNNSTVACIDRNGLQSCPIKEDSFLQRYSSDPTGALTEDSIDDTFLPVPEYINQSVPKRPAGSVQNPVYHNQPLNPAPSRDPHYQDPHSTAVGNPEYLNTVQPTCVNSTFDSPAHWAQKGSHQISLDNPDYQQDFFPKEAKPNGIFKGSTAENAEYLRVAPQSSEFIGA
- Protocol Description: EGFR degradation HTRF assay, HCC827 cells
- Format: cell-based
- Condition Set: HCC827, 16h treatment
Class definitions on DC50: label 0 (below 6 nM), label 1 (6 nM to below 40 nM), label 2 (40 nM or more)

Form: Item = COc1cc(N2CCC(N3CCN(C(=O)CC4CCN(c5ccc(C6CCC(=O)NC6=O)cc5)CC4)CC3)CC2)ccc1Nc1ncc(Cl)c(Nc2ccccc2N(C)S(C)(=O)=O)n1 (centres unmarked) [Example 122] ; Class = ?
label 1

Form: Item = CCc1cc(Nc2ncc(Br)c(Nc3ccc4nccnc4c3P(C)(C)=O)n2)c(OC)cc1N1CCC(N2CCN(C(=O)CC3CCN(c4ccc(C5CCC(=O)NC5=O)cc4)CC3)CC2)CC1 (centres unmarked) [Example 24] ; Class = ?
label 1

Form: Item = COc1cc(N2CCN(CCc3ccc(OC4CCC(=O)NC4=O)cc3)CC2)c(C)cc1Nc1ncc(Br)c(Nc2ccc3nccnc3c2P(C)(C)=O)n1 (centres unmarked) [Example 93] ; Class = ?
label 2

Form: Item = CCc1cc(Nc2ncc(Br)c(Nc3ccc4nccnc4c3P(C)(C)=O)n2)c(OC)cc1N1CCC(N2CCN(C3CC(c4ccc5c(c4)C(C)(C)C(=O)N5C4CCC(=O)NC4=O)C3)CC2)CC1 (centres unmarked) [Example 317] ; Class = ?
label 0

Form: Item = COc1cc(N2CCC(N3CCN(CCc4ccc(CN5CCC(=O)NC5=O)cc4)CC3)CC2)ccc1Nc1ncc(Cl)c(Nc2ccccc2P(C)(C)=O)n1 [Example 111] ; Class = ?
label 2

Form: Item = CP(C)(=O)c1c(Nc2nc(Nc3ccc(N4CCN(C5CN(CC6CN(c7ccc8c(c7)C(=O)N(C7CCC(=O)NC7=O)C8=O)C6)C5)CC4)c(F)c3)ncc2Br)ccc2nccnc12 (centres unmarked) [Example 259] ; Class = ?
label 0

Form: Item = COc1cc(N2CCN(CC3CCN(c4ccc(N5CCC(=O)NC5=O)cc4)CC3)CC2)ccc1Nc1ncc(Cl)c(Nc2ccccc2P(C)(C)=O)n1 [Example 115] ; Class = ?
label 2

Form: Item = COc1cc(N2CCC(NCCCCCCCc3ccc(C4CCC(=O)NC4=O)cc3)CC2)ccc1Nc1ncc(Cl)c(Nc2ccccc2N(C)S(C)(=O)=O)n1 (centres unmarked) [Example 132] ; Class = ?
label 1

Form: Item = CCc1cc(Nc2ncc(Br)c(Nc3ccc4nccnc4c3P(C)(C)=O)n2)c(OC)cc1N1CCC(N2CCN(CCCC3CN(c4ccc5c(c4)C(=O)N(C4CCC(=O)NC4=O)C5=O)C3)CC2)CC1 (centres unmarked) [Example 56] ; Class = ?
label 0

Form: Item = CCc1cc(Nc2ncc(Br)c(Nc3ccc4nccnc4c3P(C)(C)=O)n2)c(OC)cc1N1CCC(N2CCN(C(=O)CN3CCN(c4ccc5c(c4)C(=O)N(C4CCC(=O)NC4=O)C5)CC3)CC2)CC1 (centres unmarked) [Example 68] ; Class = ?
label 1

Form: Item = COc1cc(N2CCC(N3CCN(CCCOc4ccc(OC5CCC(=O)NC5=O)cc4)CC3)CC2)ccc1Nc1ncc(Cl)c(Nc2ccccc2N(C)S(C)(=O)=O)n1 (centres unmarked) [Example 127] ; Class = ?
label 1
